Reported values of IC50, IL-25 induced NF-kB signaling (SEAP) in HEK-Blue IL-17 reporter cells for individual entries
Study System: T1, recombinant human IL-25 protein (human, UniProt Q9H293 33-177)
T1 sequence: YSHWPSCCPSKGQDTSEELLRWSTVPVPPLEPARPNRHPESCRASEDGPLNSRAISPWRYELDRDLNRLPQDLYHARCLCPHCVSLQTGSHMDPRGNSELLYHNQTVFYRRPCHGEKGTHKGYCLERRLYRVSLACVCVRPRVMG
Assay Text: cell-based or functional assay
Measurement Name: IC50, IL-25 induced NF-kB signaling (SEAP) in HEK-Blue IL-17 reporter cells

{"Binder": "IL25Ab4 (antibody, V domains shown) VH: QVTLKESGPGILQPSQTLSLTCSFSGFSLSTSGMGVSWIRQPSGKGLEWLAHIYWDDAKFYNPSLKSRVTISKDTSRNQVFLRITSVDTADIATYYCARRGYDNYGGFVDWGQGTLVTVSS VL: ENVLIQSPAIMSASLGEKVTMSCRASSSVNYMYWYQQKSDAPPKLWIYYTSNLAPGVPGRFSGSGSGNSYSLTISSMEGEDAATYYCQQFTSYPYMYTFGGGTKLEIK", "Result": "0.073 nM"}
{"Binder": "IL25Ab2 (antibody, V domains shown) VH: QVTLKESGPGILQPSQTLSLTCSFSGFSLSTSGMGVGWIRQPSGKGLEWLAHIWWDDVKQYNPALQSRLTISKDTSSSQVFLKIASVDIADIATYYCARIGPVHHGFPYWGQGALVTVSS VL: QIVLTQSPAIMSAFPGEKVTMSCSASSSVNYMYWHQQKPGSSPRLLIYDTSNLASGVPVRFSGSGSGTSYSLTISRMEAEDAATYYCQQWTSYPPMYTFGGGTKLEIK", "Result": "0.068 nM"}
{"Binder": "IL25Ab1 (antibody, V domains shown) VH: QVQLKESGPGLVAPSQSLSITCTVSGFSLTDYGINWVRQPPGKGLEWLGMIWGDGVTHYNSVLKSRLSISKDNSMSQIFLKMNSLQTDDTARYYCARTLFYDGTLYYYAMDYWGQGTSVTVSS VL: QIVLTQSPATMSASPGEKVTMTCSASSSVTYMYWYQQKTGSSPRLLIYDTPNLASGVPVRFSGSGSGTSYSLTISRVEAEDAATYYCQQWSSYPHTWTFGGGTKLEIK", "Result": "0.052 nM"}
